# system under test: human EGFR (Homo sapiens, UniProt P00533)
# Construct: expressed in transfected cells; host or cells: 3T3 cells
# Sequence (P00533 25-1210): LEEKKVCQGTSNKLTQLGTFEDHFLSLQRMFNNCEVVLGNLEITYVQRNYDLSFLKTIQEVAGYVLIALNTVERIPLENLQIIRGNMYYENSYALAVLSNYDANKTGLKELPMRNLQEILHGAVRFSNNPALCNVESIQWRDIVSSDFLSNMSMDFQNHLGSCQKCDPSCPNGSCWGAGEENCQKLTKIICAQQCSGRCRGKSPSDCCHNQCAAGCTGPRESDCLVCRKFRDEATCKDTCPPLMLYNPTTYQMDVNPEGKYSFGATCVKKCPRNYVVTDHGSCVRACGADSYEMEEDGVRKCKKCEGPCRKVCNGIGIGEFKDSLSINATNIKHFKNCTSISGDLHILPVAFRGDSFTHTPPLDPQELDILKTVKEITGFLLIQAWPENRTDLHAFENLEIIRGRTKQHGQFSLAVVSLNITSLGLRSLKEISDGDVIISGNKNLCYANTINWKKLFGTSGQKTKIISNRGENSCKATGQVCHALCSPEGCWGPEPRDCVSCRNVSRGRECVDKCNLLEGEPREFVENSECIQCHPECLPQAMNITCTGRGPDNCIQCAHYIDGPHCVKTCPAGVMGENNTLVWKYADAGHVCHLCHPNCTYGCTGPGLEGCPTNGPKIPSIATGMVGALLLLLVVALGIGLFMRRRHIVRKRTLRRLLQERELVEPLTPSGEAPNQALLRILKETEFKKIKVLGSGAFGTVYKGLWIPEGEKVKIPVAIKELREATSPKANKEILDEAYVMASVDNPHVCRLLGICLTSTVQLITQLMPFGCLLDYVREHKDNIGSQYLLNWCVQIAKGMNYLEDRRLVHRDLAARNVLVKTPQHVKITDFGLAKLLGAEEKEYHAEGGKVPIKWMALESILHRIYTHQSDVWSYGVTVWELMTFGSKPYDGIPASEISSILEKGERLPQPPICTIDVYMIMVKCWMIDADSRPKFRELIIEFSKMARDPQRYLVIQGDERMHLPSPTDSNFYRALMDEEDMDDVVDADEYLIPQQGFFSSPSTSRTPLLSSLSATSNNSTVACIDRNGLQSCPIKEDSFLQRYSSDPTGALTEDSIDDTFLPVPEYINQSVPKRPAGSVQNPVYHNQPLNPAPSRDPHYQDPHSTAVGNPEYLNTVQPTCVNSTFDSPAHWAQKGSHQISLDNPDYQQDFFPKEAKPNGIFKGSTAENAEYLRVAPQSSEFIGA
# assay details: erbB1 receptor autophosphorylation, in vitro cell assay in transfected 3T3 cells, used for the erbB2 versus erbB1 selectivity ratio
# Format: cell-based
# stated conditions: comparison of IC50 for EGFR transfectant vs. erbB2/EGFR chimera transfectant
reported metric: erbB2/erbB1 ratio (selectivity)

Short answer for "Cc1ccc(Oc2ccc(Nc3ncnc4ccc(C#CCNC(=O)c5cc(C)no5)cc34)cc2C)cn1" : erbB2/erbB1 ratio (selectivity) was 216

1 = Cc1cc(Nc2ncnc3ccc(C#CCNC(=O)CN(C)C)cc23)ccc1Oc1cccnc1
2 = COC1CCN(C(=O)NC(C)(C)C#Cc2ccc3ncnc(Nc4ccc(Oc5ccc(C)nc5)c(C)c4)c3c2)C1 (stereo not shown)
3 = CCNC(=O)NCC#Cc1ccc2ncnc(Nc3ccc(Oc4cccnc4)c(Cl)c3)c2c1
Exercise: Ascending sort, erbB2/erbB1 ratio (selectivity). Field: ranking. Enter the labels in the order requested.
Solution: 3, 1, 2

----------
# system under test: chimeric EGFR/erbB2 kinase (Homo sapiens, UniProt P04626)
# Construct: EGFR extracellular/erbB2 intracellular; the other entry of the earlier key: EGFR (P00533, Epidermal growth factor receptor)
# Sequence (P04626 720-1255 limits assumed, change not shown): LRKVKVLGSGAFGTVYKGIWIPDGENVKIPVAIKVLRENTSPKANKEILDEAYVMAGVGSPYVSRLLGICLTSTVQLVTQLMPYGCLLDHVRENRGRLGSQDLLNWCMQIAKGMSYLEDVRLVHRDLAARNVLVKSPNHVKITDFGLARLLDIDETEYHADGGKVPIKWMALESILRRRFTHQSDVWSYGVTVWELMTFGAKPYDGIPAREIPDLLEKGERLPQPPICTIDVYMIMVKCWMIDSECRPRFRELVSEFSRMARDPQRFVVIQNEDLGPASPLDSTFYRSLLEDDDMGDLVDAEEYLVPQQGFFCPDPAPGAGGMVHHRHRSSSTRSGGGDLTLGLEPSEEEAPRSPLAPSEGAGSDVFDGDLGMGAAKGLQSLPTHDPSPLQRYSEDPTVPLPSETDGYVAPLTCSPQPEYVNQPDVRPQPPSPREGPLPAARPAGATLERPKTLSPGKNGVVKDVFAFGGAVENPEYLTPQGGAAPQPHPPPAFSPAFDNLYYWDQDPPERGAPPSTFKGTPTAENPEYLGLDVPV
# assay details: erbB2 receptor autophosphorylation, in vitro cell assay in transfected 3T3 cells
# stated conditions: intact 3T3 cells transfected with chimeric EGFR/erbB2 kinase; EGF-stimulated phosphotyrosine; read-out: Potency (IC50) for the erbB2 receptor
reported metric: IC50

Field IC50 (entry "CC(=O)NC/C=C/c1ccc2ncnc(Nc3ccc(Oc4ccc(C)nc4)c(Cl)c3)c2c1" ) reads 21 to 50 nM

Noted for "COC(=O)NCC#Cc1ccc2ncnc(Nc3ccc(Oc4cccnc4)c(C)c3)c2c1" : its IC50 reads 51 to 100 nM

"Cc1cc(Nc2ncnc3ccc(C#CCNC(=O)CN(C)C)cc23)ccc1Oc1cccnc1" yielded IC50 of < 20 nM

New cases:
Per the records, this molecule ( "Cc1cc(Nc2ncnc3ccc(/C=C/CNC(=O)C4CC4)cc23)ccc1Oc1cccnc1" ) has IC50 equal to 21 to 50 nM

----------
# system under test: human EGFR (Homo sapiens)
# Construct: expressed in transfected cells; host or cells: 3T3 cells
# assay details: erbB1 receptor autophosphorylation, in vitro cell assay in transfected 3T3 cells, used for the erbB2 versus erbB1 selectivity ratio
# Type: cell-based
# stated conditions: comparison of IC50 for EGFR transfectant vs. erbB2/EGFR chimera transfectant
reported metric: erbB2/erbB1 ratio (selectivity)

Worked cases, erbB2/erbB1 ratio (selectivity) given:
Lookup result for "Cc1cc(Nc2ncnc3ccc(C#CC4CCNCC4)cc23)ccc1Oc1cccnc1" ; measured erbB2/erbB1 ratio (selectivity): 196

Input "CCNC(=O)NCC#Cc1ccc2ncnc(Nc3ccc(Oc4cccnc4)c(C)c3)c2c1" . Output erbB2/erbB1 ratio (selectivity): 112

The recorded erbB2/erbB1 ratio (selectivity) for entry "Cc1ccc(Oc2ccc(Nc3ncnc4ccc(/C=C/CNC(=O)C5CC5)cc34)cc2Cl)cn1" equals 142

So, "COC(=O)NCC#Cc1ccc2ncnc(Nc3ccc(Oc4cccnc4)c(C)c3)c2c1" ? Its erbB2/erbB1 ratio (selectivity) was 140

Given item "CC(=O)C(=O)NCC#Cc1ccc2ncnc(Nc3cnc(Oc4ccccc4)c(C)c3)c2c1" , the value recorded as its erbB2/erbB1 ratio (selectivity) is 101

1 = COCC(=O)NC/C=C/c1ccc2ncnc(Nc3ccc(Oc4ccc(C)nc4)c(C)c3)c2c1
2 = Cc1cc(Nc2ncnc3ccc(/C=C/CNC(=O)C4CC4)cc23)ccc1Oc1cccnc1
Exercise: Field: lower recorded erbB2/erbB1 ratio (selectivity) (choose 1 or 2 ) Provide the label of your selected option as the answer.
Solution: 1
(1: 116, 2: 658)

----------
# system under test: human EGFR (Homo sapiens, UniProt P00533)
# Construct: expressed in transfected cells; host or cells: 3T3 cells
# assay details: erbB1 receptor autophosphorylation, in vitro cell assay in transfected 3T3 cells, used for the erbB2 versus erbB1 selectivity ratio
# Format: cell-based
# stated conditions: comparison of IC50 for EGFR transfectant vs. erbB2/EGFR chimera transfectant
reported metric: erbB2/erbB1 ratio (selectivity)

Reported erbB2/erbB1 ratio (selectivity) for "Cc1ccc(Oc2ccc(Nc3ncnc4ccc(/C=C/CNC(=O)C5CC5)cc34)cc2C)cn1" was 122

P = Cc1ccc(Oc2ccc(Nc3ncnc4ccc(/C=C/CNC(=O)c5cc(C)on5)cc34)cc2C)cn1
Q = CC(=O)NC/C=C/c1ccc2ncnc(Nc3ccc(Oc4ccc(C)nc4)c(Cl)c3)c2c1
R = COC(=O)NC/C=C/c1ccc2ncnc(Nc3ccc(Oc4cccnc4)c(C)c3)c2c1
Exercise: Order each entry by recorded erbB2/erbB1 ratio (selectivity), climbing from the minimum. List each label, following the requested order.
Solution: Q, P, R

----------
# system under test: chimeric EGFR/erbB2 kinase (Homo sapiens)
# Construct: EGFR extracellular/erbB2 intracellular; expressed in transfected cells; host or cells: 3T3 cells; the other entry of the earlier key: EGFR (P00533, Epidermal growth factor receptor)
# assay details: erbB2 receptor autophosphorylation, in vitro cell assay in transfected 3T3 cells
# Type: cell-based
# stated conditions: intact 3T3 cells transfected with chimeric EGFR/erbB2 kinase; EGF-stimulated phosphotyrosine; read-out: Potency (IC50) for the erbB2 receptor
reported metric: IC50

# IC50 of CCNC(=O)NCC#Cc1ccc2ncnc(Nc3ccc(Oc4cccnc4)c(Cl)c3)c2c1 [Example 12] = 21 to 50 nM

The reported IC50 of the compound Cc1cc(Nc2ncnc3ccc(C#CC4CCNCC4)cc23)ccc1Oc1cccnc1 [Example 14] was 21 to 50 nM

Next:
# IC50 of Cc1ccc(Oc2ccc(Nc3ncnc4ccc(C#CCNC(=O)c5cc(C)no5)cc34)cc2C)cn1 [Example 16] = 21 to 50 nM

The reported value for CC(=O)C(=O)NCC#Cc1ccc2ncnc(Nc3cnc(Oc4ccccc4)c(C)c3)c2c1 [Example 1] in terms of IC50 is < 20 nM

Sure, the documented IC50 for COC1CCN(C(=O)NC(C)(C)C#Cc2ccc3ncnc(Nc4ccc(Oc5ccc(C)nc5)c(C)c4)c3c2)C1 (centres unmarked) [Example 8] is 51 to 100 nM

Kindly note the recorded IC50 for COC(=O)NC/C=C/c1ccc2ncnc(Nc3ccc(Oc4cccnc4)c(C)c3)c2c1 [Example 7] , which is 21 to 50 nM

# compound Cc1ccc(Oc2ccc(Nc3ncnc4ccc(/C=C/CNC(=O)C5CC5)cc34)cc2Cl)cn1 [Example 4] ; its IC50 = 21 to 50 nM

Per the records, this compound ( COCC(=O)NCC#Cc1ccc2ncnc(Nc3ccc(Oc4cccc(OC)c4)c(C)c3)c2c1 [Example 3] ) has IC50 equal to 21 to 50 nM

----------
# system under test: chimeric EGFR/erbB2 kinase (Homo sapiens)
# Construct: EGFR extracellular/erbB2 intracellular; the other entry of the earlier key: EGFR (P00533, Epidermal growth factor receptor)
# assay details: erbB2 receptor autophosphorylation, in vitro cell assay in transfected 3T3 cells
# stated conditions: intact 3T3 cells transfected with chimeric EGFR/erbB2 kinase; EGF-stimulated phosphotyrosine; read-out: Potency (IC50) for the erbB2 receptor
pIC50: −log10 of the molar value.
Measured pIC50, listed per entry.

Consider the reported pIC50 for these compounds:
Record CCNC(=O)NCC#Cc1ccc2ncnc(Nc3ccc(Oc4cccnc4)c(C)c3)c2c1 [Example 10] , field pIC50: 7.30 to 7.68

Recorded result, Cc1ccc(Oc2ccc(Nc3ncnc4ccc(/C=C/CNC(=O)c5cc(C)on5)cc34)cc2C)cn1 [Example 6] , pIC50: > 7.70

What the record says about COCC(=O)NC/C=C/c1ccc2ncnc(Nc3ccc(Oc4ccc(C)nc4)c(C)c3)c2c1 [Example 9] : pIC50 is 7.30 to 7.68

More entries:
pIC50 reported for this compound Cc1ccc(Oc2ccc(Nc3ncnc4ccc(/C=C/CNC(=O)C5CC5)cc34)cc2C)cn1 [Example 11] : 7.30 to 7.68
